# Test system: HT-29
# Protocol: NCI tumour cell line growth inhibition, 48 h
The source made the active and inactive calls. No stated cut-off is given here; in the data, active = GI50 up to about 1.1 µM and inactive = higher.
I'd be grateful if you could share measured GI50 for these entries.

Kindly indicate its recorded GI50. Item: `CCOC(=O)CCCNC(=O)CCCCC(=O)N(C)C`
> 100 µM (inactive)

Kindly indicate its recorded GI50. Item: `Clc1cc(N/N=C(\c2ccccc2)c2ccccn2)ncn1`
< 0.01 µM (active)

Kindly indicate its recorded GI50. Item: O=[N+]([O-])C1Cc2ccccc2OC1c1ccccc1 (configuration not stated)
83.8 µM (inactive)

Kindly indicate its recorded GI50. Item: `Nc1nc(SCc2ccccn2)c2ncn(C3CCCC3)c2n1`
> 100 µM (inactive)

Kindly indicate its recorded GI50. Item: `O=C(CSc1nc2ccccc2c(=O)n1-c1ccccc1)N/N=C1\C(=O)Nc2ccc(Br)cc21`
1.69 µM (inactive)

Kindly indicate its recorded GI50. Item: `CCOc1ccc(/C=N\N2C(=O)c3ccccc3C2=O)cc1`
> 100 µM (inactive)

Kindly indicate its recorded GI50. Item: CC(NC(=O)OC(C)(C)C)C(=O)NC(Cc1ccccc1)C(=O)NCC(=O)Oc1c(Cl)c(Cl)c(Cl)c(Cl)c1Cl (configuration not stated)
23.7 µM (inactive)

Kindly indicate its recorded GI50. Item: `CN(C)c1ccc(/C=C2\C[C@H]3[C@@H]4CC=C5C[C@@H](O)CC[C@]5(C)[C@H]4CC[C@]3(C)[C@H]2O)cc1`
8.09 µM (inactive)

Kindly indicate its recorded GI50. Item: NC1CC2NC3CCCCC3NC2CC1N (configuration not stated)
27.4 µM (inactive)

Kindly indicate its recorded GI50. Item: `O=c1oc2c3ccc4ccccc4c3n(Cc3nc4ccccc4[nH]3)c2c2ccccc12`
4.48 µM (inactive)

Kindly indicate its recorded GI50. Item: `COC(=O)c1ccc(NCc2cc(O)c3ccccc3c2O)cc1`
18.7 µM (inactive)

Kindly indicate its recorded GI50. Item: `COc1ccc2c(C)cc(=O)oc2c1OC`
> 100 µM (inactive)

Kindly indicate its recorded GI50. Item: `C/C=C/[C@@H]1O[C@H](CC#C[Si](C)(C)C)[C@@]2(C=O)C(C)=CC[C@H](C(C)C)[C@@H]12`
19.5 µM (inactive)

Kindly indicate its recorded GI50. Item: CCOC(=O)n1c(=O)nc2c3c(ncn21)Oc1c(c(-c2ccccc2)nn1-c1ccccc1)C3c1ccc(Cl)cc1 (configuration not stated)
1.75 µM (inactive)

Kindly indicate its recorded GI50. Item: `Nc1nc(N)c2nc(CN(C=O)c3ccc(C(=O)O)cc3)cnc2n1`
> 100 µM (inactive)

Kindly indicate its recorded GI50. Item: `CCc1cc(C)cc2[n+]1CC=C2.[O-][Cl+3]([O-])([O-])[O-]`
19.4 µM (inactive)

Kindly indicate its recorded GI50. Item: `O=C(O)[C@H](c1ccccc1)[C@@H](C(=O)O)c1ccccc1`
> 100 µM (inactive)

Kindly indicate its recorded GI50. Item: O=C1[C@H]2ON(c3ccccc3)C(c3ccco3)[C@H]2C(=O)N1c1ccc(Cc2ccc(N3C(=O)[C@@H]4ON(c5ccccc5)C(c5ccco5)[C@@H]4C3=O)cc2)cc1 (some centres not stated)
> 100 µM (inactive)

Kindly indicate its recorded GI50. Item: C#CCNC(CCCNC(=N)N)C(=O)O (configuration not stated)
> 100 µM (inactive)

Kindly indicate its recorded GI50. Item: `Clc1ccc(Cc2nc3ccccc3s2)c(Cl)c1`
20.6 µM (inactive)

Kindly indicate its recorded GI50. Item: `N=C(N)NCCNC(=N)N`
> 100 µM (inactive)

Kindly indicate its recorded GI50. Item: O=C1OS2(OC(=O)c3cccc4cccc2c34)c2ccccc21 (configuration not stated)
> 100 µM (inactive)
